biological target: Poly [ADP-ribose] polymerase 1 (Homo sapiens, UniProt P09874)
Sequence (P09874 whole entry): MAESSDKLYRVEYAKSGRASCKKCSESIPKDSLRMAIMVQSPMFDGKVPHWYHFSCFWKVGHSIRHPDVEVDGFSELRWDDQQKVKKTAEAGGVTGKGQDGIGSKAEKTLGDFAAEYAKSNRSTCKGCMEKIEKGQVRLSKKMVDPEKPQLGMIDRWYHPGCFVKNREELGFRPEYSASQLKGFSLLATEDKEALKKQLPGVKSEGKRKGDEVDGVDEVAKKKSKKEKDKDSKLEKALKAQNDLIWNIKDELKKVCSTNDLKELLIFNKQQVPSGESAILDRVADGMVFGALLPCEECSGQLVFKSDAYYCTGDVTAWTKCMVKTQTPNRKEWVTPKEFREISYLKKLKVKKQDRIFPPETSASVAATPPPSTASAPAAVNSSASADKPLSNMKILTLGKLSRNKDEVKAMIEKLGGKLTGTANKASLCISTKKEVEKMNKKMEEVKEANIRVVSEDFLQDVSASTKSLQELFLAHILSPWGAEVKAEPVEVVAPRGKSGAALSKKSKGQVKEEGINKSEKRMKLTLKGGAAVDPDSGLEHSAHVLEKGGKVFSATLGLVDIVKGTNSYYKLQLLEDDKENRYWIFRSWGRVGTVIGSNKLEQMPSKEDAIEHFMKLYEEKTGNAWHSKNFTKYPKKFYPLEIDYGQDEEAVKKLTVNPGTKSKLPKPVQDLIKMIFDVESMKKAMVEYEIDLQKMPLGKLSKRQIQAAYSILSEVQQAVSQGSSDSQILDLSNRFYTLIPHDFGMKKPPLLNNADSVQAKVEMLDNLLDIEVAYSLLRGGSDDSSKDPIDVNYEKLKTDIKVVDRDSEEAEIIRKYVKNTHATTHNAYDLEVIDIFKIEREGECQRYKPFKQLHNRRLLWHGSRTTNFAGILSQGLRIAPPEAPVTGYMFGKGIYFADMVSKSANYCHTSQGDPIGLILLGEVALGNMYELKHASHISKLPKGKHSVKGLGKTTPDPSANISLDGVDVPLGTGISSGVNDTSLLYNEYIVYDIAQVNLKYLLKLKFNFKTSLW
pIC50: −log10 of the molar value.
Dear colleague, classification is by pIC50, with ranges listed here: range 1: < 8; range 2: ≥ 8 and < 9; range 3: ≥ 9

compound=N#Cc1cccc(N2CCN(C(=O)c3cc(Cc4n[nH]c(=O)c5ccccc45)cc(F)c3F)CC2)n1 assignedclass="range 2"
compound=O=C(c1cc(Cc2n[nH]c(=O)c3ccccc23)cc(F)c1F)N1CCN(c2ccccc2F)CC1 assignedclass="range 1"
compound=O=C(c1cc(Cc2n[nH]c(=O)c3ccccc23)cc(F)c1F)N1CCN(C2CCCC2)CC1 assignedclass="range 2"
compound=O=C(c1cc(Cc2n[nH]c(=O)c3ccccc23)cc(F)c1F)N1CCN(c2cccc(Cl)c2)CC1 assignedclass="range 2"

Challenge: In plain terms, what class is O=C(c1cc(Cc2n[nH]c(=O)c3ccccc23)cc(F)c1F)N1CCN(c2ccc([N+](=O)[O-])cc2)CC1 ?
Response given: range 3

Challenge: Given O=C(c1cc(Cc2n[nH]c(=O)c3ccccc23)cc(F)c1F)N1CCN(C(=O)C2CCCO2)CC1 (centres undefined) , name the class its pIC50 places it in.
Response given: range 2

Challenge: Textbook exercise: identify the category of the compound given here, N#Cc1ccc(N2CCN(C(=O)c3cc(Cc4n[nH]c(=O)c5ccccc45)cc(F)c3F)CC2)cc1 , according to its measured value.
Response given: range 2
